Here the recorded IC50 is given for each entry.
testedTarget: JAK2(h) (Homo sapiens)
Sequence (O60674 whole entry): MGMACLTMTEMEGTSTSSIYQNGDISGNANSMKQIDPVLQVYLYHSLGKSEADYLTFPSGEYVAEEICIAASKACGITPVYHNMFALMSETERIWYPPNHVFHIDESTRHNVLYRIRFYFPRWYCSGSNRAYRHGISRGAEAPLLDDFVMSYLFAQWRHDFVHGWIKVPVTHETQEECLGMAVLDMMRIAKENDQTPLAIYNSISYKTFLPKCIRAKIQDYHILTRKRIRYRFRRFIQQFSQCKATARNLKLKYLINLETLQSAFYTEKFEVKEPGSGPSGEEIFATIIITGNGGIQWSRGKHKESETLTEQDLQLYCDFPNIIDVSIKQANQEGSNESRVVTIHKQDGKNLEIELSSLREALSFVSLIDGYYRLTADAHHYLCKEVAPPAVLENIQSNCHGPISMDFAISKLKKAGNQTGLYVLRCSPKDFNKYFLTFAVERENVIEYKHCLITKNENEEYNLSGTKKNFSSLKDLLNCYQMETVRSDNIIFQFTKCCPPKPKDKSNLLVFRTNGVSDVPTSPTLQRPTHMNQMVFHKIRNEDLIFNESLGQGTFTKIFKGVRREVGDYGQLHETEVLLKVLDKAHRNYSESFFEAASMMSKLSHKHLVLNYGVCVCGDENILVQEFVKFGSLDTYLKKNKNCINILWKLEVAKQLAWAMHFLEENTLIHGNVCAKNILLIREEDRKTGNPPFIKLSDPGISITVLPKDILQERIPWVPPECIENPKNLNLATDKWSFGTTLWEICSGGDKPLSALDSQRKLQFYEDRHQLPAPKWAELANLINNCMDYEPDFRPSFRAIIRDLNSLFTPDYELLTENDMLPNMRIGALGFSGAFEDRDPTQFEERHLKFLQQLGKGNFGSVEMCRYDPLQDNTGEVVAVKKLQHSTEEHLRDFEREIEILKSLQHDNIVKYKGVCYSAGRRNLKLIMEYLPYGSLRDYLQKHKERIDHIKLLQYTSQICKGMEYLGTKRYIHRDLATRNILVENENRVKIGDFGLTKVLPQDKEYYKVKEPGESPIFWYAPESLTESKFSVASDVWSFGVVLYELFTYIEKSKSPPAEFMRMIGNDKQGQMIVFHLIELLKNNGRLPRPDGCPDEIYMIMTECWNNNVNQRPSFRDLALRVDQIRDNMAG
testDescription: In vitro activity assay of JAK2 kinase (radiometric, [γ-33P]-ATP)
testParameters: recombinant human JAK2, 40 min at room temperature
Protocol: Recombinant human JAK1, JAK2, JAK3 and Tyk2 […], and main instruments and reagents were all provided by Eurofins, UK. Dilution of JAK2, JAK3 and TYK2: 20 mM 3-(N-morpholino)propanesulfonic acid (MOPS), 1 mM EDTA, 0.01% Brij-35.5% glycerol, 0.1% β-mercaptoethanol, and 1 mg/mL BSA; dilution of JAK1: 20 mM TRIS, 0.2 mM EDTA, 0.1% β-mercaptoethanol, and 0.01% Brij-35.5% glycerol. […]
valueKind: IC50 (nM)

1) C[C@@H](O)c1nc2cnc3[nH]ccc3c2n1[C@@H]1CCc2cc(C#N)nn2C1 : 250
2) C[C@@H](O)c1nc2cnc3[nH]ccc3c2n1[C@H]1CCc2cc(C#N)nn2C1 : 53.9
3) COc1nc2cnc3[nH]ccc3c2n1[C@@H]1CCc2cc(C#N)nn2C1 : 7
4) Cc1nc2cnc3[nH]ccc3c2n1C1CCc2cc(C#N)nn2C1 (single isomer, unassigned) : 2
5) N#Cc1cc2n(n1)CC(n1cnc3cnc4[nH]ccc4c31)CC2 (single isomer, unassigned) : 27
6) N#Cc1cc2n(n1)CC(n1c(C(F)(F)F)nc3cnc4[nH]ccc4c31)CC2 (single isomer, unassigned) : 62
7) COc1nc2cnc3[nH]ccc3c2n1[C@H]1CCc2cc(C#N)nn2C1 : 70.2

Data provenance is patent US20230017539A1.
